# Test system: SNB-19 CNS
# METHOD NOTES: NCI tumour cell line growth inhibition, 48 h
EXPERIMENTAL READOUT: TGI

Consider the worked cases shown below.
COMPOUND | VALUE OBSERVED
CN(C)CCCN1c2ccccc2Sc2ccc3ccccc3c21 | 28.8 µM
CCN(CC)CC1CCCCN1CC(=O)N1c2ccccc2C(=O)Nc2cccnc21 (stereo unspecified) | > 100 µM

# batch size: 2; output TGI per entry
1. Oc1ccc(-c2cc(-c3cc(-c4ccc(O)cc4)no3)on2)cc1
2. O=C(/C=C/c1ccccc1)CCN1CCOCC1

### Response
> 100 µM
39.9 µM
